Target: MOR expressed in human embryonic kidney 293 (HEK-293) cells (Homo sapiens)
pKi: −log10 of the molar value.

- SMILES_REPR: "Cc1c(N(C)Cc2cc3c4c(c2O)O[C@H]2[C@@H](O)C=C[C@H]5[C@@H](C3)N(C)CC[C@@]452)c(=O)n(-c2ccccc2)n1C"
  pKi: 8.52

---

Biological target: MOR expressed in human embryonic kidney 293 (HEK-293) cells (Homo sapiens, UniProt P35372)
Sequence (P35372 whole entry): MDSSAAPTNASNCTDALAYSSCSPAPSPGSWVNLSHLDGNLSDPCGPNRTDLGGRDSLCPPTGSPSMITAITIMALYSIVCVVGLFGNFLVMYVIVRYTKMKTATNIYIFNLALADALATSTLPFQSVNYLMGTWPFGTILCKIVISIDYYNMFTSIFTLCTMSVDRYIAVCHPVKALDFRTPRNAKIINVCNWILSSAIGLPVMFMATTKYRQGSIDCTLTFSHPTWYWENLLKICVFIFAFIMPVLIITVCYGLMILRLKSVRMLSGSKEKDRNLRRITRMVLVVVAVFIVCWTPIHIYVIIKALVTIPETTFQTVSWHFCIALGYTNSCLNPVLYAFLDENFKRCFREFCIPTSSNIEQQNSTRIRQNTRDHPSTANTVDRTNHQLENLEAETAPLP
pIC50: −log10 of the molar value.
OBSERVABLE: pIC50

- SMILES_REPR: "Cc1c(N(C)Cc2cc3c4c(c2O)O[C@H]2[C@@H](O)C=C[C@H]5[C@@H](C3)N(C)CC[C@@]452)c(=O)n(-c2ccccc2)n1C"
  OBSERVABLE: "pIC50"
  RECORDED_NUMBER: 8.14

Data origin: paper PMC11915030
